These measurements were taken from ChEMBL document CHEMBL1132568.

target: Alpha-1A adrenergic receptor (Rattus norvegicus); experiment: The binding affinity towards Alpha-1A adrenergic receptor in the COS cell line.
Sequence (P43140 whole entry): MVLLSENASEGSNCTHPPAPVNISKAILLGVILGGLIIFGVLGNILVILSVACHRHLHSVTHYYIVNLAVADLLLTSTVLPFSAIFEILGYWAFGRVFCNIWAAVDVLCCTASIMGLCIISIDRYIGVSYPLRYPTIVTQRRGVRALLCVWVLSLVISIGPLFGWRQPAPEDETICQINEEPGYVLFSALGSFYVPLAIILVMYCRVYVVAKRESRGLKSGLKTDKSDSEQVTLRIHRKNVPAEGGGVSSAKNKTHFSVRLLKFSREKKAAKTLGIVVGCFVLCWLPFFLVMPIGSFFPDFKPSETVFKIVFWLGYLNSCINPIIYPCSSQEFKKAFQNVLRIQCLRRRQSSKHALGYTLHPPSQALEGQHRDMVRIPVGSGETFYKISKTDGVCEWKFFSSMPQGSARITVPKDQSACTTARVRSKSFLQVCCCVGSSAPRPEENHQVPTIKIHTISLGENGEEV
pKi: −log10 of the molar value.
outcomeMeasure: pKi

Sample answers from the record:
{"columns": ["compound", "pKi"],
 "data": [
  ["COc1cc2nc(N3CCN(C(=O)COc4c(OC)cccc4OC)CC3)nc(N)c2cc1OC", 7.44],
  ["COc1cc2nc(N3CCN(C(=O)COc4c(OC)cccc4C(C)C)CC3)nc(N)c2cc1OC", 8.12],
  ["COc1cc2nc(N3CCN(C(=O)C(C)Oc4c(OC)cccc4C(C)C)CC3)nc(N)c2cc1OC (stereo unspecified)", 6.81]
]}

P: COc1cc2nc(N3CCN(C(=O)CCC(=O)c4ccccc4)CC3)nc(N)c2cc1OC
Q: COc1cc2nc(N3CCN(C(=O)CC(c4ccccc4)c4ccccc4)CC3)nc(N)c2cc1OC
R: COc1cc2nc(N3CCN(C(=O)CC(=O)c4ccccc4)CC3)nc(N)c2cc1OC
Task: I would appreciate it if you could sort these 3 compounds by pKi, starting from the smallest number. Response field: labels, in requested order.
Result: R, P, Q
(R: 7.96, P: 8.25, Q: 8.83)
